tested on: ASPS-1 complex tumor spheroids, viability; assay: Anticancer human tumor ASPS-1 cell line growth inhibition; details: second compound 0.000949 µM; first compound 3 µM; active means viability on the fitted dose curve at most 10% of control; inactive means the rest;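 further: spheroids exposed to agents for 7 days after 3 days of growth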
Outcomes: y for active, n for inactive

{"columns": ["molecule", "cat"],
 "data": [
  ["O=C(c1cc(Cc2n[nH]c(=O)c3ccccc23)ccc1F)N1CCN(C(=O)C2CC2)CC1 + COc1cc2c(cc1O)CCNC21CSC2c3c(OC(C)=O)c(C)c4c(c3C(COC1=O)N1C(O)C3Cc5cc(C)c(OC)c(O)c5C(C21)N3C)OCO4", "n"],
  ["Cc1sc2c(c1C)C(c1ccc(Cl)cc1)=NC(CC(=O)Nc1ccc(O)cc1)c1nnc(C)n1-2 (centres undefined) + COc1cc2c(cc1O)CCNC21CSC2c3c(OC(C)=O)c(C)c4c(c3C(COC1=O)N1C(O)C3Cc5cc(C)c(OC)c(O)c5C(C21)N3C)OCO4", "n"],
  ["Cn1ncnc1[C@H]1c2n[nH]c(=O)c3cc(F)cc(c23)N[C@@H]1c1ccc(F)cc1 + COc1cc2c(cc1O)CCNC21CSC2c3c(OC(C)=O)c(C)c4c(c3C(COC1=O)N1C(O)C3Cc5cc(C)c(OC)c(O)c5C(C21)N3C)OCO4", "n"],
  ["CNCc1ccc(-c2cc(-c3nc(-c4ccc(S(=O)(=O)C(C)C)cc4)cnc3N)on2)cc1 + COc1cc2c(cc1O)CCNC21CSC2c3c(OC(C)=O)c(C)c4c(c3C(COC1=O)N1C(O)C3Cc5cc(C)c(OC)c(O)c5C(C21)N3C)OCO4", "y"]
]}
